Let's look at some molecules and their measured composite z-score.
test system: Wnt5a (protein binding on small-molecule microarray); experiment: Wnt5a binders on small-molecule microarray, primary screen, biophysical, 635/667 nm fluorescence (AID 1142); conditions: 635 nm fluorescence, higher = more signal;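 also: fluorescence read at 667 nm with signal to noise per printed feature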

Field: example entries. Status: answers known.
MOLECULE | EXPERIMENTAL TARGET | MEASURED METRIC | READING
Cc1ccc([C@H]2[C@H](C(=O)O)[C@H](Sc3ccccc3)[C@@H](C(C)C)N2S(=O)(=O)c2ccc(C)cc2)cc1 | Wnt5a (protein binding on small-molecule microarray) | composite z-score | 0.378
NCCCCCNC(=O)[C@H]1C[C@H]2C(=O)NCC(=O)N2[C@H]1c1cccc(OCCO)c1 | Wnt5a (protein binding on small-molecule microarray) | composite z-score | 0.584
COc1ccc(C(O)C2C=CC3C(=O)N(c4ccccc4)C(=O)C3N2Nc2ccc([N+](=O)[O-])cc2)cc1OCc1ccccc1 (stereo unspecified) | Wnt5a (protein binding on small-molecule microarray) | composite z-score | 1.43
COc1ccc([Si](C)(C)[C@H]2[C@H](CCn3cc([C@H](O)c4ccccc4)nn3)O[C@@]3(C(=O)N(Cc4cccc(N5CCC5=O)c4)c4ccccc43)[C@@H]2C)cc1 | Wnt5a (protein binding on small-molecule microarray) | composite z-score | 0.42
CCOC(=O)C[C@H]1[C@H](OC(=O)c2ccc(-c3ccccc3)cc2)[C@@H](NC(=O)c2ccc3ccccc3c2)c2cc(OCCCO)ccc2N1C(=O)Cc1ccc(OC)cc1 | Wnt5a (protein binding on small-molecule microarray) | composite z-score | 0.266

Let us move to another entry and its composite z-score.
COCCOC(=O)N1C(=O)[C@@]2(c3cc(C#CCCO)ccc31)[C@H](c1ccccc1OCCO)N1[C@H](c3ccccc3)[C@H](c3ccccc3)OC(=O)[C@H]1[C@@H]2C(=O)N1CCN(c2ncccn2)CC1 has a reported composite z-score of 0.544

* * *

Entries and their z-score values follow.
experiment: E. coli acrAB mutant growth effects, primary screen, E. coli filamentation inducers, strain DRC39, OD650, 48 h (AID 1179);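 also: screen aims at cell division blockers that make cells filament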; conditions: E. coli DRC39 delta-acrAB growth, higher = more signal, called active from +8 up or from −8 down
Activity calls are given as the source filed them.

These solved cases illustrate the format of a correct answer.
COMPOUND | READING
Cc1c(NC(=O)CC#N)c(=O)n(-c2ccccc2)n1C | 1.47 (inactive)
CC(C)C[C@@H]1NC(=O)[C@@H]2C[C@H](C(=O)NCCCCCC[N+](C)(C)C)[C@H](c3ccc(O)cc3)N2C1=O | 0.62 (inactive)
C=CC(COC(C)=O)NS(=O)(=O)c1ccc(Br)cc1 (stereo not drawn) | -1.05 (inactive)
N#Cc1ccc(NN2C(C(O)c3cccs3)C=CC3C(=O)N(c4ccccc4)C(=O)C32)cc1 (stereo not drawn) | 1.36 (inactive)
[N-]=[N+]=NCc1ccccc1C[C@]1(C(=O)NCC(O)CO)N=C(c2ccc(OCCCO)cc2)O[C@H]1c1ccccc1N=[N+]=[N-] (stereo partly drawn) | 0.0128 (inactive)

Field z-score (entry COC(=O)[C@@]1(Cc2ccc(OC)cc2)[C@H]2c3cc(C(=O)N(C)C)n(Cc4c(OC)[nH]cc(C)c4=O)c3C[C@H]2CN1C(=O)c1ccccc1 ) reads 0.574 (inactive)

Kindly note the recorded z-score for Cc1ccc(S[C@]2(C(=O)NC3CC3)CC(=O)N(C3CCCCC3)[C@@H]2c2ccc(CO)cc2I)cc1 , which is 0.377 (inactive)

// field: z-score; key: C=C(C(=O)CC[C@H](OC(C)=O)c1ccc(OCCO)cc1)C(C)C ; value = 0.204 (inactive)

* * *

test system: PRMT1 (protein arginine N-methyltransferase 1); assay: PRMT1 binders on small-molecule microarrays, primary screen, biochemical, small-molecule microarray, 635 nm fluorescence (AID 1088); details: small-molecule microarray binding, higher = more signal;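 also: binding of Prmt1 protein to compounds spotted on small-molecule microarray slides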
# binarize composite z-score: threshold 1 inclusive, high side fulfilled, low side not fulfilled

COMPOUND | CAT
COCCOC(=O)N1C(=O)[C@@]2(c3cc(C#CCNC(N)=O)ccc31)[C@H](c1ccc(O)cc1)N1[C@H](c3ccccc3)[C@H](c3ccccc3)OC(=O)[C@H]1[C@@H]2C(=O)NC[C@H](O)c1ccccc1 | fulfilled

Kindly review the next compound as well.
Reported composite z-score at or above 1? CC(C)(C)OC(=O)CC[C@]1(C(=O)N2CCCCC2)N=C(c2ccc(OCCCO)cc2)O[C@H]1c1ccccc1N=[N+]=[N-]
fulfilled

* * *

In this section we review reported composite z-score values for a set of molecules.
biological target: Torsin-1A-interacting protein 2 (Homo sapiens) (UniProt Q8NFQ8); experiment: LULL1 binders on small-molecule microarray, primary screen, cell lysate, human LULL1 lysate, 635/667 nm fluorescence (AID 1092); details: hLULL1 lysate binding, 635 nm fluorescence, higher = more signal;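 also: probe is lysate of COS7 cells overexpressing human LULL1; score merges per-feature 667 nm fluorescence with signal-to-noise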
Sequence (Q8NFQ8 whole entry, looked up): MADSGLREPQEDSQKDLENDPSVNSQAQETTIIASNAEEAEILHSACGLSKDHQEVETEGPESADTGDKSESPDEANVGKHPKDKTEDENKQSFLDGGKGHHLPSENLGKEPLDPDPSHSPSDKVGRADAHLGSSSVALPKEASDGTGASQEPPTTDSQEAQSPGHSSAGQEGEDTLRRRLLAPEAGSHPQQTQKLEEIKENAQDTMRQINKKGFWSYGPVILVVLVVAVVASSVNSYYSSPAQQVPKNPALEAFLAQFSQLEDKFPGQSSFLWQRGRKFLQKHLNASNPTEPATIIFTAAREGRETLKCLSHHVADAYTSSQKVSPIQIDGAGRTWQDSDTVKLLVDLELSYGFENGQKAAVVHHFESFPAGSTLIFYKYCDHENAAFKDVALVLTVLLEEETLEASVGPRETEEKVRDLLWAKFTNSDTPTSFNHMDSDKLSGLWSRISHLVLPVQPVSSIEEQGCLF

Answered examples (5):
MOLECULE | composite z-score
CCCCCN1CC=CC23O[C@@H]4C=CCOC(=O)[C@@H]4[C@H]2C(=O)N(CCCO)[C@@H]3C1=O (some centres undefined) | 3.5
O=C1O[C@H](c2ccccc2)[C@H](c2ccccc2)N2[C@H]1[C@@H](C(=O)O)[C@]1(C(=O)Nc3ccc(C#CC4(O)CCCCCC4)cc31)[C@H]2c1ccc(OCCO)cc1 | 3.58
CCCN1C(=O)[C@]2(COC(c3ccc(OCCCO)cc3)=N2)Cc2ccccc21 | 2.88
COCCOC(=O)N1C(=O)[C@@]2(c3cc(C#Cc4ccc(OC)cc4)ccc31)[C@H](C(=O)N1CCN(c3ncccn3)CC1)[C@H]1C(=O)O[C@H](c3ccccc3)[C@H](c3ccccc3)N1[C@@H]2c1ccc(O)cc1 | 0.78
C=CCOC(=O)[C@H]1[C@@H]2C(=O)O[C@@H](c3ccccc3)[C@@H](c3ccccc3)N2[C@@H](c2ccc(OCCOC(=O)[C@@H]3C[C@@H]4C(=O)NCC(=O)N4[C@@H]3c3ccc(O)cc3)cc2)[C@]12C(=O)Nc1ccccc12 | 2.35

Result for COCCCNC(=O)[C@@]1(C)c2ccccc2C(=O)N(Cc2cc(C(F)(F)F)cc(C(F)(F)F)c2)[C@H]1c1ccc(CO)cc1 , tested on Torsin-1A-interacting protein 2 (Homo sapiens) (UniProt Q8NFQ8), composite z-score: 3.01

GET /values?item= COCCOC(=O)N1C(=O)[C@@]2(c3cc(C#CCC(C(=O)OC)C(=O)OC)ccc31)[C@H](c1ccccc1OCCO)N1[C@H](c3ccccc3)[C@H](c3ccccc3)OC(=O)[C@H]1[C@@H]2C(N)=O &system= Torsin-1A-interacting protein 2 (Homo sapiens) (UniProt Q8NFQ8) returns composite z-score: 2.74

Entry C[N+](C)(C)CCCCCCNC(=O)[C@H]1C[C@H]2C(=O)N3CCC[C@H]3C(=O)N2[C@H]1c1ccc(O)cc1 under Torsin-1A-interacting protein 2 (Homo sapiens) (UniProt Q8NFQ8) had composite z-score of 2.96

Per the reported Torsin-1A-interacting protein 2 (Homo sapiens) (UniProt Q8NFQ8) data, O=c1cccc(CCc2ccccc2)o1 has composite z-score of 1.8

Value (composite z-score, Torsin-1A-interacting protein 2 (Homo sapiens) (UniProt Q8NFQ8)) for record CN1CCC(CCCO)=CC1c1ccc(CN2CCCC2)cc1 (centres undefined) = 2.18

Note to self: composite z-score of CC(C)C[C@@H]1NC(=O)[C@H]2C[C@@H](C(=O)NCCCCCNC(=O)CS)[C@@H](c3cccc(OCCO)c3)N2C1=O with Torsin-1A-interacting protein 2 (Homo sapiens) (UniProt Q8NFQ8) was 3.06

For the molecule CC(C)NC(=O)[C@@]1(Cc2ccccc2I)c2ccccc2C(=O)N(Cc2ccccc2)[C@H]1c1ccc(CO)cc1 , the measured composite z-score on Torsin-1A-interacting protein 2 (Homo sapiens) (UniProt Q8NFQ8) was 2.91

composite z-score for Torsin-1A-interacting protein 2 (Homo sapiens) (UniProt Q8NFQ8) with input C=C[C@@H](COC(C)=O)N(Cc1ccc([N+](=O)[O-])cc1)S(=O)(=O)c1ccc(Br)cc1 equals 1.25

Param item: Cc1ccc(S[C@]2(C(=O)O)CC(=O)N(C3Cc4ccccc4C3)[C@@H]2c2ccc(CO)cc2I)cc1 ; param system: Torsin-1A-interacting protein 2 (Homo sapiens) (UniProt Q8NFQ8); output composite z-score: 2.32

* * *

experiment: binders from COS7 lysate, DM2A8 probe, primary screen, torsin A project, cell lysate, small-molecule microarray, fluorescence 635/667 (AID 1065); conditions: higher = more signal, COS7 lysate expressing mutant human TOR1A
MEASURED METRIC: composite z-score

Worked set:
COMPOUND | composite z-score
O=C1N(CCS(=O)(=O)c2ccccc2)Cc2ccccc2C[C@]12N=C(c1ccc(OCCCO)cc1)O[C@@H]2c1ccccc1 | 0.97
COCC1=C2[C@@H](CCc3ccccc3)OB(O)C[C@@H]2[C@@H]2C(=O)N(Cc3ccccc3)C(=O)[C@@H]2C1 | -0.138
CC(C)(C)N1CC=CC23O[C@@H]4/C=C\CCCOC(=O)C4[C@H]2C(=O)N(CCO)[C@@H]3C1=O (stereo partly drawn) | -1.05
CC(C)(C)OC(=O)CC[C@]1(C(=O)N2CCCCC2)N=C(c2ccc(OCCCO)cc2)O[C@H]1c1ccccc1N=[N+]=[N-] | 0.933
O=C1[C@]2(CO)C=C(Br)[C@@H](C[C@@H]2c2ccccc2)[C@@]12CO2 | -0.61

So for CCOC(=O)C1=CCC(c2ccc([N+](=O)[O-])cc2)N(S(=O)(=O)c2ccc(C)cc2)C1 (stereo not drawn) , the logged composite z-score turned out to be -0.0288

response.value for N#Cc1ccc(NN2C(C(O)c3ccc([N+](=O)[O-])cc3)C=CC3C(=O)N(c4ccccc4)C(=O)C32)cc1 (stereo not drawn) (field: composite z-score) = -0.0479

Documented composite z-score of Cc1c(NC(=O)CC#N)c(=O)n(-c2ccccc2)n1C : 0.114

Where do these numbers come from? They come from PubChem BioAssay.
